Provenance of the data: patent US10669270B2

recorded.metric: melting point

given.smiles	melting point
Cc1ccc(S(=O)(=O)NCc2ccc(CNC(=O)c3c(Cl)cc(Cl)cc3Cl)cc2)cc1	188 to 190 °C

*Q* Look at this molecule and give its reported melting point. Cc1ccc(S(=O)(=O)NCc2ccc(CNC(=O)c3ccc(Cl)cc3)cc2)cc1
*A* 201 to 203 °C

*Q* Item: O=C(NCc1ccc(CNS(=O)(=O)c2ccccc2)cc1)c1ccncc1
*A* 154 to 156 °C

*Q* Item: COc1ccccc1C(=O)NCc1ccc(CNS(=O)(=O)c2ccccc2)cc1
*A* 123 to 125 °C

*Q* Item: COc1ccc(C(=O)NCc2ccc(CNS(=O)(=O)c3ccccc3)cc2)cc1
*A* 164 to 166 °C
